- target-system: Fes (UniProt P07332)
- Sequence (P07332 whole entry, looked up): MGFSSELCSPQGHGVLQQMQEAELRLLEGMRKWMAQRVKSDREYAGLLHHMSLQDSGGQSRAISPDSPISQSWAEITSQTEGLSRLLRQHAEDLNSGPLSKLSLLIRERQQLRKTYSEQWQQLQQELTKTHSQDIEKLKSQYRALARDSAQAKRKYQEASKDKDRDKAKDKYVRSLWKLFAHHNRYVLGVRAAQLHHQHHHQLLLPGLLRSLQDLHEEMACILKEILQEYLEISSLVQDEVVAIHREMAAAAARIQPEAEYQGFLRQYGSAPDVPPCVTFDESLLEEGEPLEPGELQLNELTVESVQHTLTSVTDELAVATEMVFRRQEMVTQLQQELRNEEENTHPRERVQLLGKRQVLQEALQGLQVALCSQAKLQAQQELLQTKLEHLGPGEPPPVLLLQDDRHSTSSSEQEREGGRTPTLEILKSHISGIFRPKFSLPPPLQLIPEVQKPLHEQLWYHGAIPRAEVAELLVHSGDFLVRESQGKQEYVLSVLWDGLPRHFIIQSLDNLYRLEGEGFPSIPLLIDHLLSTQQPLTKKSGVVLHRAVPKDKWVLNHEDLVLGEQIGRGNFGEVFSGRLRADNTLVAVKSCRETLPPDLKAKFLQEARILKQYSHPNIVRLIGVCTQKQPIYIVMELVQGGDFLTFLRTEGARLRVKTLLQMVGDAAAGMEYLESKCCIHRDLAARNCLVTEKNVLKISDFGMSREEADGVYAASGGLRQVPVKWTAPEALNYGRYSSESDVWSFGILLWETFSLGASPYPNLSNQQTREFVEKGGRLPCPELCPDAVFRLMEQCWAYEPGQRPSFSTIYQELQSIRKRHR
- procedure-text: phosphorylation enrichment, bacterial display (enrichment ratio); higher = better substrate or ligand; peptides without Tyr show the background;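 also: 11-residue human phosphosite peptides and single-mutation variants displayed on the E. coli surface, counted by deep sequencing, each peptide's frequency after selection divided by its frequency in the unselected input library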;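 also: frequency after pTyr selection over input frequency; kinase dosed for 20-30% of maximal phosphorylation in three min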
Entry flag: yes (1) if phosphorylation enrichment reaches 0.7; no (0) if it does not.

PKGIRYGQGAG [CSRP3_Y73_G72R] :: no (0)
GDSVQYNRTTD [MLPH_Y454_P451S] :: yes (1)
LYRYGYANTSE [SI_Y1233_C1229Y] :: yes (1)
ATHSRYRLNDY [CLDN14_Y233_G232R] :: yes (1)
LGRTVYADCLA [ABCA4_Y2063_L2060R] :: yes (1)

Could you tell me if the measured phosphorylation enrichment of CPPKVYELMIA [ABL2_Y515_R519I] reaches 0.7 or more? yes (1)
